B1: ZNF263 (parent)
chain: FAHSSNLLRHQRIHTGERPYKCPE

variants of: B1; test: protein stability index of a GFP-peptide fusion (GPS, HEK-293T) (PSI 1-6); higher = more stable; conditions: c terminus: a fixed tail appended;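 note: lentivirally expressed fusions sorted by FACS into six bins by GFP to DsRed ratio, PSI derived from sequencing read proportions per bin multiplied by bin number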
Tag: true if measured protein stability index is not below 3, false if it is.

Request: Can F1G be said to have protein stability index at or above 3?
Result: true

Request: Can N6S be said to have protein stability index at or above 3?
Result: false

Request: Can R9A be said to have protein stability index at or above 3?
Result: false

Request: Can C22P be said to have protein stability index at or above 3?
Result: false

Request: Can R12M be said to have protein stability index at or above 3?
Result: false

Request: Can E17T be said to have protein stability index at or above 3?
Result: false

Request: Can L7G be said to have protein stability index at or above 3?
Result: false

Request: Can H3L be said to have protein stability index at or above 3?
Result: false

Request: Can E17C be said to have protein stability index at or above 3?
Result: false

Request: Can F1E be said to have protein stability index at or above 3?
Result: true

Request: Can N6I be said to have protein stability index at or above 3?
Result: false

Request: Can A2I be said to have protein stability index at or above 3?
Result: false

Request: Can P19Q be said to have protein stability index at or above 3?
Result: true

Request: Can L8R be said to have protein stability index at or above 3?
Result: false
